Let's look at some molecules and their measured pKd.
system.under.test: human CA-XII (Homo sapiens, UniProt O43570)
Construct: purchased Creative BioMart CA12-261H
Sequence (O43570 25-354): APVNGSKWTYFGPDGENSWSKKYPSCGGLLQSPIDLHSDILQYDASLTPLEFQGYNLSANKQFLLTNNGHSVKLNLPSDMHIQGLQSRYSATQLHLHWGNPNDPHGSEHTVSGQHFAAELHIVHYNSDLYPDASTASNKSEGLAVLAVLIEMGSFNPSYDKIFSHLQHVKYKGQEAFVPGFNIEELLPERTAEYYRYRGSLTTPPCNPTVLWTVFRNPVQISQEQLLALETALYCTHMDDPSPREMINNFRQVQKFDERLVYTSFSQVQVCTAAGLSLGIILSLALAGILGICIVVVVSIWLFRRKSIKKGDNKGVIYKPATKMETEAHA
protocol: Surface Plasmon Resonance (SPR) binding kinetics to recombinant human CA-XII (Biacore 8K, single-cycle kinetics, 1:1 binding model)
particulars: Chelated Metal: Lu-175, 25° C., pH 7.4, read-out: CAXII KD
pKd: −log10 of the molar value.
quantity.name: pKd

>>> result("NS(=O)(=O)c1nnc(NC(=O)C23CCC(c4cn(CCNC(=O)[C@@H]5CN(C(=O)CN6CCN(CC(=O)O)CCN(CC(=O)O)CCN(CC(=O)O)CC6)CCN5C(=O)CC[C@H](NC(=O)C[C@H](NC(=O)CCc5ccc(O)cc5)C(=O)O)C(=O)O)nn4)(CC2)CC3)s1.[Lu+3]")
"> 9.00"
>>> result("CC(CCCC(=O)N1CCOC[C@H]1C(=O)N[C@@H](CC(=O)N1CCN(C(=O)CN2CCN(CC(=O)O)CCN(CC(=O)O)CCN(CC(=O)O)CC2)C[C@@H]1C(=O)NCCn1cc(C23CC(C(=O)Nc4nnc(S(N)(=O)=O)s4)(C2)C3)nn1)C(=O)O)(c1ccc(O)cc1)c1ccc(O)cc1.[Lu+3]")
"< 8.00"
>>> result("CC(CCC(=O)N[C@@H](CC(=O)N[C@@H](CC(=O)NC1(CCCCn2cc(CCC(=O)Nc3nnc(S(N)(=O)=O)s3)nn2)CCN(C(=O)OCCOCCNC(=O)CN2CCN(CC(=O)O)CCN(CC(=O)O)CCN(CC(=O)O)CC2)CC1)C(=O)O)C(=O)O)(c1ccc(O)cc1)c1ccc(O)cc1.[Lu+3]")
"< 8.00"
>>> result("NS(=O)(=O)c1nnc(NC(=O)C23CC(c4cn(CCNC(=O)[C@@H]5CN(C(=O)CN6CCN(CC(=O)O)CCN(CC(=O)O)CCN(CC(=O)O)CC6)CCN5C(=O)C[C@H](NC(=O)C[C@H](NC(=O)c5cc(C(F)(F)F)[nH]n5)C(=O)O)C(=O)O)nn4)(C2)C3)s1.[Lu+3]")
"8.00 to 8.60"
>>> result("NS(=O)(=O)c1nnc(NC(=O)C23CC(c4cn(CCNC(=O)[C@@H]5CN(C(=O)CN6CCN(CC(=O)O)CCN(CC(=O)O)CCN(CC(=O)O)CC6)CCN5C(=O)C[C@H](NC(=O)C[C@H](NC(=O)CCC56CCC(CC5)C6)C(=O)O)C(=O)O)nn4)(C2)C3)s1.[Lu+3]")
"8.60 to 9.00"
>>> result("CC(CCC(=O)N[C@@H](CC(=O)N[C@@H](CC(=O)N[C@@H](CCCCn1cc(C23CCC(C(=O)Nc4nnc(S(N)(=O)=O)s4)(CC2)C3)nn1)C(=O)N1CC2(CN(C(=O)CN3CCN(CC(=O)O)CCN(CC(=O)O)CCN(CC(=O)O)CC3)C2)C1)C(=O)O)C(=O)O)(c1ccc(O)cc1)c1ccc(O)cc1.[Lu+3]")
"> 9.00"
>>> result("NS(=O)(=O)c1nnc(NC(=O)C23CC(c4cn(CCNC(=O)[C@@H]5CN(C(=O)CN6CCN(CC(=O)O)CCN(CC(=O)O)CCN(CC(=O)O)CC6)CCN5C(=O)C[C@H](Nc5ncc(C(=O)NCc6n[nH]c7ccccc67)cn5)C(=O)O)nn4)(C2)C3)s1.[Lu+3]")
"< 8.00"
>>> result("CC(CCC(=O)N[C@@H](CC(=O)N[C@@H](CC(=O)N1CCN(C(=O)CC[C@H](C(=O)O)N2CCN(CC(=O)O)CCN(CC(=O)O)CCN(CC(=O)O)CC2)C[C@H]1C(=O)NCCn1cc(C23CC(C(=O)Nc4nnc(S(N)(=O)=O)s4)(C2)C3)nn1)C(=O)O)C(=O)O)(c1ccc(O)cc1)c1ccc(O)cc1.[Lu+3]")
"< 8.00"
>>> result("CCCCNc1c(F)c(S(N)(=O)=O)c(F)c(F)c1S(=O)(=O)CCOCc1cn(CCNC(=O)[C@H]2CN(C(=O)CN3CCN(CC(=O)O)CCN(CC(=O)O)CCN(CC(=O)O)CC3)CCN2C(=O)C[C@H](NC(=O)[C@@H]2COCCN2C(=O)CCC(C)(c2ccc(O)cc2)c2ccc(O)cc2)C(=O)O)nn1.[Lu+3]")
"< 8.00"
>>> result("NS(=O)(=O)c1nnc(NC(=O)C23CCC(c4cn(CCNC(=O)[C@@H]5CN(C(=O)CN6CCN(CC(=O)O)CCN(CC(=O)O)CCN(CC(=O)O)CC6)CCN5C(=O)CC[C@H](NC(=O)C[C@H](NC(=O)C5CC6(CCC6)C5)C(=O)O)C(=O)O)nn4)(CC2)CC3)s1.[Lu+3]")
"> 9.00"
>>> result("NS(=O)(=O)c1nnc(NC(=O)C23CC(c4cn(CCNC(=O)[C@@H]5CN(C(=O)CN6CCN(CC(=O)O)CCN(CC(=O)O)CCN(CC(=O)O)CC6)CCN5C(=O)C[C@H](NC(=O)C[C@H](NC(=O)Cc5ccc(S(F)(F)(F)(F)F)cc5)C(=O)O)C(=O)O)nn4)(C2)C3)s1.[Lu+3]")
"8.00 to 8.60"
>>> result("Cc1cc(C2CC2)ccc1C(=O)N[C@@H](CC(=O)N[C@@H](CC(=O)N1CCN(C(=O)CN2CCN(CC(=O)O)CCN(CC(=O)O)CCN(CC(=O)O)CC2)C[C@H]1C(=O)NCCn1cc(C23CC(C(=O)Nc4nnc(S(N)(=O)=O)s4)(C2)C3)nn1)C(=O)O)C(=O)O.[Lu+3]")
"8.00 to 8.60"
>>> result("CC(CCC(=O)N1CCNC[C@H]1C(=O)N[C@@H](CC(=O)N1CCN(C(=O)CN2CCN(CC(=O)O)CCN(CC(=O)O)CCN(CC(=O)O)CC2)C[C@@H]1C(=O)NCCn1cc(C23CC(C(=O)Nc4nnc(S(N)(=O)=O)s4)(C2)C3)nn1)C(N)=O)(c1ccc(O)cc1)c1ccc(O)cc1.[Lu+3]")
"< 8.00"

====

system.under.test: human CA-XII (Homo sapiens, UniProt O43570)
Construct: purchased Creative BioMart CA12-261H
protocol: Surface Plasmon Resonance (SPR) binding kinetics to recombinant human CA-XII (Biacore 8K, single-cycle kinetics, 1:1 binding model)
particulars: Chelated Metal: Lu-175, 25° C., pH 7.4, read-out: CAXII KD
Let's look at some compounds and their measured Kd.
quantity.name: Kd

>>> result("CC(CCCC(=O)N1CCC(C(=O)O)(C(=O)NCC(=O)NC2(C(=O)NCCn3cc(C45CC(C(=O)Nc6nnc(S(N)(=O)=O)s6)(C4)C5)nn3)CCN(C(=O)CN3CCN(CC(=O)O)CCN(CC(=O)O)CCN(CC(=O)O)CC3)CC2)CC1)(c1ccc(O)cc1)c1ccc(O)cc1.[Lu+3] (single isomer, unassigned) [Compound 117.4]")
"> 10 nM"
>>> result("CC(CCC(=O)N[C@@H](CC(=O)N[C@@H](CC(=O)N1CCN(C(=O)CN2CCN(CC(=O)O)CCN(CC(=O)O)CCN(CC(=O)O)CC2)C[C@H]1C(=O)NCCn1cc(-c2ccc(C(=O)Nc3nnc(S(N)(=O)=O)s3)c(Cl)c2)nn1)C(=O)O)C(=O)O)(c1ccc(O)cc1)c1ccc(O)cc1.[Lu+3]")
"1 to 2.5 nM"
>>> result("NS(=O)(=O)c1nnc(NC(=O)C23CC(c4cn(CCNC(=O)[C@@H]5CN(C(=O)CN6CCN(CC(=O)O)CCN(CC(=O)O)CCN(CC(=O)O)CC6)CCN5C(=O)C[C@H](NC(=O)C[C@H](NC(=O)c5n[nH]c6ccc(O)cc56)C(=O)O)C(=O)O)nn4)(C2)C3)s1.[Lu+3]")
"2.5 to 10 nM"
>>> result("CC(CCCC(=O)N1CCC(C(N)=O)(C(=O)NCC(=O)N2CCN(C(=O)CN3CCN(CC(=O)O)CCN(CC(=O)O)CCN(CC(=O)O)CC3)C[C@H]2C(=O)NCCn2cc(COc3ccc4nc(S(N)(=O)=O)sc4c3)nn2)CC1)(c1ccc(O)cc1)c1ccc(O)cc1.[Lu+3]")
"> 10 nM"
>>> result("NS(=O)(=O)c1nnc(NC(=O)C23CC(c4cn(CCNC(=O)[C@@H]5CN(C(=O)CN6CCN(CC(=O)O)CCN(CC(=O)O)CCN(CC(=O)O)CC6)CCN5C(=O)C[C@H](Nc5ncc(C(=O)NCCc6ccc(F)c(F)c6)cn5)C(=O)O)nn4)(C2)C3)s1.[Lu+3]")
"> 10 nM"
>>> result("CC(CCCC(=O)N1CCC(C(N)=O)(C(=O)NCC(=O)NC2(C(=O)NCCn3cc(C45CC(C(=O)Nc6nnc(S(N)(=O)=O)s6)(C4)C5)nn3)CCN(C(=O)CN3CC4(C3)CN(C(=O)CN3CCN(CC(=O)O)CCN(CC(=O)O)CCN(CC(=O)O)CC3)C4)CC2)CC1)(c1ccc(O)cc1)c1ccc(O)cc1.[Lu+3]")
"> 10 nM"
>>> result("CC(CCCOc1cc(NC(CC(=O)N[C@@H](CCCCn2cc(CCCC(=O)Nc3nnc(S(N)(=O)=O)s3)nn2)C(=O)NCCOCCOCCNC(=O)CN2CCN(CC(=O)O)CCN(CC(=O)O)CCN(CC(=O)O)CC2)C(=O)O)cc(C(=O)O)c1)(c1ccc(O)cc1)c1ccc(O)cc1.[Lu+3] (stereo partly shown)")
"2.5 to 10 nM"
